Numbers sourced from the supplement of paper PMC5908809.

System: normal primary NK cells, pool 1 (3 donors), resting (IL-2 0 ng/mL)
Experiment: relative IC50 (inflection point of fitted viability curve, relative to fitted max inhibition); higher = less sensitive
Details: 72 h
outcome measure: relative IC50

Please review the following examples before continuing.
[
  {
    "item smiles": "C[C@@H]1COC(Nc2ccc3ncnc(Nc4ccc(OCc5nccs5)c(Cl)c4)c3c2)=N1",
    "relative IC50": "> 10000 nM"
  },
  {
    "item smiles": "Clc1ccccc1C(c1ccccc1)(c1ccccc1)n1cccn1",
    "relative IC50": "> 1000 nM"
  }
]

Let me know recorded relative IC50 for CON(C)C(=O)N1N=C(c2cc(F)ccc2F)S[C@@]1(CCCN)c1ccccc1 , thanks.
> 1000 nM
